molecular target: p-Akt2 (phospho serine / threonine kinase) (UniProt P31751 1-481)
Sequence (P31751 whole entry): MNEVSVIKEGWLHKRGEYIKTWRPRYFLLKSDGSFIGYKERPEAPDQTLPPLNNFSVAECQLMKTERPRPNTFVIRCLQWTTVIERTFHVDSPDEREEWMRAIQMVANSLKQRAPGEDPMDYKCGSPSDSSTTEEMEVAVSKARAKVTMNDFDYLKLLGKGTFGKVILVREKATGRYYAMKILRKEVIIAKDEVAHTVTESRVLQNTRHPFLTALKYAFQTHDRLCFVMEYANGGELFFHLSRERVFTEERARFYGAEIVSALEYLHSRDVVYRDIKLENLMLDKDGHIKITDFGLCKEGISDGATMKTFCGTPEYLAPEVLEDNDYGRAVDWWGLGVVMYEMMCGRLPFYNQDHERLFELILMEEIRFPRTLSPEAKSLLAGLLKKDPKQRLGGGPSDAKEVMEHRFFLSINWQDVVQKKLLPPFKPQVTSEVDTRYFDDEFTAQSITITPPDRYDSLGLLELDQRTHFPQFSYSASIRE
endpointName: EC50 (nM)
Entry rule: numbers only, all in nM.

## Input Which EC50 reading was recorded for the binder YYTYT [Cy(YYTYT-click)] ?
## Output 122
